target: T1, biotin-labelled EZH2 protein (UniProt Q15910 1-746, limits assumed, biotin label (EZ-link NHS-PEO4-Biotinylation kit)); assay: KDM2B peptide array probed with biotin-EZH2 1 ug/ml, SA-HRP/ECL;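 note: 100% is the highest background-corrected spot optical density on the membrane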;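 note: Background-corrected optical density of each spot on the membrane, given as percent of the brightest spot (100%), color developed for 5 minutes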
T1 construct: Probe in solution (1 ug/ml) on the KDM2B peptide microarray; also called NHS-PEO4-Biotinylation-labelled EZH2 protein; recombinant protein
T1 sequence (Q15910 whole entry): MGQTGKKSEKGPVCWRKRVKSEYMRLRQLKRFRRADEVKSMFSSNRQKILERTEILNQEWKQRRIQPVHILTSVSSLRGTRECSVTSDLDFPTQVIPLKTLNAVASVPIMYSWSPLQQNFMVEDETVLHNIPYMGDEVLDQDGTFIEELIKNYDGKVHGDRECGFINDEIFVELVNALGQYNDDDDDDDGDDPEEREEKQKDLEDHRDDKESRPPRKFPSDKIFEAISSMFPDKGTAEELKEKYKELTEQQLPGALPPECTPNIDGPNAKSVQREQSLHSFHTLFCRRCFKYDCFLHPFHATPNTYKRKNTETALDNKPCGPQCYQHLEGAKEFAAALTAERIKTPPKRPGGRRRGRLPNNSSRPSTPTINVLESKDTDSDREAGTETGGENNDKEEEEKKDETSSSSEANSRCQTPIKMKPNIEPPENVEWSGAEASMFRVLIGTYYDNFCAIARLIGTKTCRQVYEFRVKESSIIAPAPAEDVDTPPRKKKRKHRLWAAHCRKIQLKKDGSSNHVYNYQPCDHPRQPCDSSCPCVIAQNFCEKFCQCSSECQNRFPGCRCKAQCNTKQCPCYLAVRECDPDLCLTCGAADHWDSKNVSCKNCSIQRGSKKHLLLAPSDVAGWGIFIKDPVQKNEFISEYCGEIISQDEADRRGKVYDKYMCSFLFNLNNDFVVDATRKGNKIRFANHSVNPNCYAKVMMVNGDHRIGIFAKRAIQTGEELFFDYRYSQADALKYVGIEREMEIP
Reported values of Intensity (%) for individual entries
Write the number in % without appending the unit.

* RESMLIDAPRKPSID [peptide 78] | 1.74
* TRCRKCEACLRTECG [peptide 123] | 97.3
* EGIEDPQALLEGVKN [peptide 108] | 0
* VKSTTLAVDYPKTPT [peptide 97] | 0
* PKPPTDGSTSPTSTP [peptide 88] | 0

Now examine the next entry.
Recorded result, FHIDFGGTSVWYHVF [peptide 49] , Intensity (%): 0

Where do these numbers come from? They come from patent US20250197451A1.
